Test system: SNB-19 CNS
Assay: NCI tumour cell line growth inhibition, 48 h; in the data active = GI50 below about 0.43 µM; inactive = the rest
Give one outcome, nothing more. List: active, inactive

Cn1cc(C2=C(c3cn(C)c4cc(N)ccc34)C(=O)NC2=O)c2ccccc21 = inactive
CCCCCCNC(=O)n1cc(F)c(=O)[nH]c1=O = inactive
CCCCNC(=O)Oc1ccc(/C(=C(/CC)Cc2ccccc2)c2ccc(OCCN3CCCCCC3)cc2)cc1 = inactive
CS(=O)(=O)[O-].CS(=O)(=O)[O-].NC1CCCCC1N.[Pt+4] (centres undefined) = inactive
C[PH+](c1nc2ccccc2nc1[PH+](C)C(C)(C)C)C(C)(C)C.C[PH+](c1nc2ccccc2nc1[PH+](C)C(C)(C)C)C(C)(C)C.[Au+].[Cl-] (centres undefined) = active
CCOC(=O)c1c2c(n(Cc3ccccc3)c1C)-c1nc(Cc3ccccc3)[nH]c1C(=O)C2=O = inactive
COc1ccc(/C=C\c2cc(OC)c(OC)c(OC)c2)c(NS(=O)(=O)c2ccc(Cl)cc2)c1O = inactive
C[C@]12CC[C@@H](OC(=O)N(CCCl)N=O)C[C@@H]1CC[C@@H]1[C@@H]2CC[C@]2(C)C(=O)CC[C@@H]12 = inactive

// return assay outcome for `C/C(=C(/c1ccc(O)cc1)c1ccc(Cl)cc1)c1ccccc1` inactive

----------
System: OVCAR-8 ovarian
Assay: NCI tumour cell line growth inhibition, 48 h
OBSERVED PROPERTY: log10 of TGI (log10 of the value in µM)
Lab note - TGI converted to log10 from values in µM.

Some entries whose results are on file:
O=C(N/N=C/c1ccc(Cl)cc1)c1[nH]c2ccc(Cl)cc2c1-c1ccccc1 = 1.51
COc1ccc2c(c1)C(=O)C1CCC(=O)N1C2c1ccc2c(c1)OCO2 (configuration not stated) = 1.65

Please go through the list and note log10 of TGI for each compound.
1. NC1c2c(Cl)sc(Cl)c2C(=O)C1O (configuration not stated)
2. CCN(CCCl)c1cccc(NC(=O)c2ccc(C(=O)Nc3cccc(CN(C)C)c3)cc2)c1
3. CC1=NOC(=O)C1N=Nc1ccc(Br)c(C)c1 (configuration not stated)
4. CCCCCCNC(=O)n1cc(F)c(=O)[nH]c1=O
5. COC(=O)/C=c1/c2ccccc2n2c1c1ccccc1[n+]2C

1: 1.71; 2: 0.13; 3: 1.51; 4: 1.38; 5: 1.20

Can you give me log10 of TGI for all of these, one by one?
1. COC(=O)c1cc(-c2ccc(OC)cc2)[nH]c1N/N=C/c1c(Cl)cccc1Cl
2. O=C1C(Cl)=C(c2ccc([N+](=O)[O-])cc2)C(=O)c2c(O)cccc21

1: 0.71; 2: 0.76

Under OVCAR-8 ovarian: log10 of TGI value of `COc1ccccc1NC(=O)C1=C(C)NC(C)=C(C(=O)Nc2ccccc2OC)C1c1ccc(N(C)C)cc1` ? 1.89

----------
Test system: DLD-1 colon
Experiment: NCI tumour cell line growth inhibition, 48 h
Please go through the items and note down their TGI.
Give bare numbers, in µM.

C=CCCCCn1c2ccccc2c2c(C)c3cnccc3c(C)c21 = 29.9

# context switch: different compound, same TGI
Value wanted: TGI (DLD-1 colon) of entry `O=C1C(Cl)=C(c2ccc([N+](=O)[O-])cc2)C(=O)c2c(O)cccc21` 2.55

----------
System: NCI-H226 lung
Test: NCI tumour cell line growth inhibition, 48 h
OBSERVED PROPERTY: TGI (µM)
Answers are plain numbers, in µM.

Previously resolved entries follow.
COc1ccc(N2C(=O)C3c4[nH]c5ccccc5c4C4CCCCCCC4C3C2=O)cc1 (stereo not given) = 31.6
COc1ccccc1NC(=O)C1=C(C)NC(C)=C(C(=O)Nc2ccccc2OC)C1c1ccc(N(C)C)cc1 = 51.3
CN(C)CCCc1c2ccccc2nc2ccc(Cl)cc12 = 40.7

Next item in the queue.
Lab request: please report TGI under test system NCI-H226 lung for `N=c1ccc2nc3c(cc(N)c4ccccc43)oc-2c1` 1.63

----------
Kindly state TGI for each of the entries shown.
System: SNB-75 CNS
Test: NCI tumour cell line growth inhibition, 48 h

Below, 5 molecules whose answers are already recorded.
COc1cc(C2c3cc4c(cc3[C@@H](OCCN(C)C)C3COC(=O)[C@H]23)OCO4)cc(OC)c1O (stereo partly drawn) = 3.75 µM
COc1ccccc1NC(=O)C1=C(C)NC(C)=C(C(=O)Nc2ccccc2OC)C1c1ccc(N(C)C)cc1 = 80.6 µM
COC1(OC)C=CC(=O)C=C1 = 26.9 µM
COc1ccc(C2SCC(=O)N2NC(=O)C(C)Oc2ccc(Cl)cc2Cl)cc1 (stereo not drawn) = 51.1 µM
CCn1c(=O)c2c3ccc(OC(C)=O)cc3[nH]c2c2ccc(OC(C)=O)cc21 = 89.5 µM

For every item below, please supply its TGI.
1. NNC(=O)Cn1ccnn1
2. Cc1c(Cl)cccc1NC(=O)/C(Cl)=C(\Cl)C(=O)O
3. COc1nc(C)cc2c(=O)n(-c3ccccc3)n(CC(O)CN3CCN(c4ccc(Cl)cc4)CC3)c(=O)c12 (stereo not drawn)
4. O=C1C(Cl)=C(c2ccc([N+](=O)[O-])cc2)C(=O)c2c(O)cccc21
5. COc1cc2oc(-c3ccc4c(c3)OCO4)c(OC)c(=O)c2c(O)c1OC
6. N#Cc1c(C[n+]2ccccc2)c2ccccc2oc1=O
7. CC1=CC[C@](C)(O)[C@@]2(C)CC[C@H]3C(=C(C)C)C(=O)C[C@]3(C)C[C@H]12
8. COc1c(Sc2ccccc2)cc(Sc2ccccc2)c2cccnc12

["> 100 µM", "46.7 µM", "27.8 µM", "7.13 µM", "> 50 µM", "> 100 µM", "> 50 µM", "66 µM"]

----------
Give TGI for every item shown.
System: IGROV1 ovarian
Assay: NCI tumour cell line growth inhibition, 48 h

COc1nc(C)cc2c(=O)n(-c3ccccc3)n(CC(O)CN3CCN(c4ccc(Cl)cc4)CC3)c(=O)c12 (stereo unspecified) = > 50 µM
C/C(=C(/c1ccc(O)cc1)c1ccc(Cl)cc1)c1ccccc1 = 2.22 µM
COC(=O)C1CC23C=CCN4CC(C2C)C2(c5ccccc5NC12)C43 (stereo unspecified) = > 100 µM
S=P(N1CCCC1)(N1CC1)N1CC1 = > 100 µM
CC(=Nc1cc(Cl)cc(Cl)c1)c1ccncc1 = > 100 µM

Read the next record carefully.
Provide value of TGI for this record tested with IGROV1 ovarian: `Cc1nc2cccc(F)c2c(=O)n1-c1nnc(C(F)(F)F)s1` > 10 µM

----------
Tested on: KM12 colon
Test: NCI tumour cell line growth inhibition, 48 h
Field: TGI. Provide a value for each of the molecules that follow.
Numbers only, in µM.

State the recorded TGI for every item in the following list.
1. CC(C)(CN1CCCCC1)C(/C=C/c1ccccc1)=N\NC(=O)N/N=C(/C=C/c1ccccc1)C(C)(C)CN1CCCCC1
2. CCCCCCNC(=O)Oc1ccc(/C(=C(/C)Cc2ccc(OC)cc2)c2ccc(OCCN(C)C)cc2)cc1

1. 3.86
2. 10.1

Report TGI for each item below.
1. C[C@]12CC[C@H]3[C@@H](CC[C@]4(O)C[C@@H](O)CC[C@]34CO)[C@@]1(O)CC[C@@H]2C1=CC(=O)OC1
2. CC(C)(C)n1cc(-c2ccnc(NCCCNS(=O)(=O)c3ccc(Br)cc3)c2)c(-c2cccc(O)c2)n1
3. COc1ccc2c(c1)C(=O)C1CCC(=O)N1C2c1ccc2c(c1)OCO2 (centres undefined)

[17, 4.37, 22.2]

----------
System: HCT-15 colon
Assay: NCI tumour cell line growth inhibition, 48 h
Hi there, I'd appreciate the recorded TGI for every entry that follows.

Worked examples, 5 molecules total:
COC(=O)[C@@H]1C=C[C@H](NC(C)=O)C1 = > 100 µM
O=[N+]([O-])c1ccc2c(c1)n1c(N3CCCC3)[n+]3ccccc3c1c1c3cccc[n+]3c(N3CCCC3)n21 = > 100 µM
O=C(O)c1cccc(/C=C/c2ccccc2)c1 = > 100 µM
NC(=S)N/N=C1\CCCC1C(O)(C(F)(F)Cl)C(F)(F)Cl (centres undefined) = > 10 µM
COc1cc(/C=C/c2ccc(OC)c(OC)c2OC)cc(OC)c1OC = > 57.2 µM

Could you tell me TGI for each of these molecules? They are listed below.
1. COc1ccc(OC)c(C[P+](c2ccccc2)(c2ccccc2)c2ccccc2)c1
2. N#C/C(=C1/c2cc([N+](=O)[O-])ccc2-c2c1cc([N+](=O)[O-])cc2[N+](=O)[O-])N1CCCCC1
3. CC1(O)CCC2(C)C(=O)C1(C)CCC21OCCO1 (centres undefined)
4. Nc1ccc2c(c1)NC(=O)[C@@H]1CCCN1C2=O
5. COc1cc(S(=O)(=O)Nc2ccc(-c3csc(/N=C\c4ccccc4)n3)cc2)ccc1Cl

1: > 100 µM; 2: > 100 µM; 3: > 100 µM; 4: > 100 µM; 5: > 100 µM

Batch lookup, TGI per entry.
1. COc1cc2c(cc1OC)C(=O)/C(=C/c1ccc(O)cc1)CC2
2. CCOC(=O)Nc1nc2cc(OCC)ccc2s1
3. Clc1ccc(-c2c(C3=NCCN3)nnn2-c2ccccc2)cc1
4. CC1(C)C=[N+]([O-])C(C)(C)N1O

1: > 10 µM; 2: > 100 µM; 3: > 100 µM; 4: > 10 µM

Batch request: TGI per item, same order as input.
1. O=c1oc2cccnc2n1CCCCN1CCN(c2ccccc2)CC1
2. COc1cccc(C23CCCC(C2)N(C)CC3OC(=O)c2ccccc2)c1OC (centres undefined)
3. CNC(=O)N(CCC#N)CCCN(C(=O)N(C)C)c1ccccc1
4. COc1nc(C)cc2c(=O)n(-c3ccccc3)n(CC(O)CN3CCN(c4ccc(Cl)cc4)CC3)c(=O)c12 (centres undefined)
5. O=c1[nH]c2cc([N+](=O)[O-])c(Nc3c4ccccc4nc4ccccc34)c([N+](=O)[O-])c2[nH]1

1: > 100 µM; 2: 72.7 µM; 3: > 100 µM; 4: > 50 µM; 5: 14.4 µM
